Target: Cytochrome P450 4F3 (Homo sapiens, UniProt Q08477)
Sequence (Q08477 whole entry): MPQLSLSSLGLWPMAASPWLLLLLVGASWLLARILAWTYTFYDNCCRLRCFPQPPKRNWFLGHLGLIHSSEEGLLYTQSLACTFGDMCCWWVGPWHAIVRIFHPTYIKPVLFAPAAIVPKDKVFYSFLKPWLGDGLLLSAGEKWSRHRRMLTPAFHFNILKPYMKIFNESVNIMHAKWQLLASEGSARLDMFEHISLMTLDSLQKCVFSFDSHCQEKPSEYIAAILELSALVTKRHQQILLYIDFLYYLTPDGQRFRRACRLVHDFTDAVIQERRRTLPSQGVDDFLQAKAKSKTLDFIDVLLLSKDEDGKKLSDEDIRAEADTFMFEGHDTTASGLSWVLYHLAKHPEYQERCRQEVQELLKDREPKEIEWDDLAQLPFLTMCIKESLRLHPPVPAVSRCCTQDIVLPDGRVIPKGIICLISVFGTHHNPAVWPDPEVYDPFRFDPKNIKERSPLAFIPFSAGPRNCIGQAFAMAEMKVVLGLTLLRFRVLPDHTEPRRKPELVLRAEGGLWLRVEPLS
Assay: Drug metabolism assessed as human CYP4F3A-mediated compound formation from 5 uM [14C]boceprevir after 120 mins by LC-MS/FSA method relative to total [14C]boceprevir
Assay type: ADME
Conditions: recombinant enzyme, 2 h
value kind: Compound recovery (%)

These solved cases illustrate the format of a correct answer.
molecule: CC(C)(C)NC(=O)N[C@H](C(=O)N1C[C@H]2[C@@H]([C@H]1C(=O)O)C2(C)C)C(C)(C)C
readout units: %
meas value: 0.24

molecule: CC(C)(C)NC(=O)N[C@H](C(=O)N1C[C@H]2[C@@H]([C@H]1C(=O)N[C@@H](CC1CCC1)C(=O)C(N)=O)C2(C)C)C(C)(C)C [BOCEPREVIR]
readout units: %
meas value: 57.31

molecule: CC(C)(C)NC(=O)N[C@H](C(=O)N1C[C@H]2[C@@H]([C@H]1C(=O)N[C@H](CC1CCC1)C(=O)C(N)=O)C2(C)C)C(C)(C)C
readout units: %
meas value: 34.35

[a] CC(C)(C)NC(=O)N[C@H](C(=O)N1C[C@H]2[C@@H]([C@H]1C(=O)N[C@@H](CC1CCC1)[C@@H](O)C(N)=O)C2(C)C)C(C)(C)C
[b] CC(C)(C)NC(=O)N[C@H](C(=O)N1C[C@H]2[C@@H]([C@H]1C(N)=O)C2(C)C)C(C)(C)C
Please tell me which of the two, a or b , has the higher reported Compound recovery value. Indicate your choice by writing its label.
a
